# TEST PROTOCOL: Growth inhibition of mouse NIH/3T3 cells at 10 uM after 72 hrs by MTT assay
# Type: cell-based, NIH3T3
# MEASUREMENT CONDITIONS: read-out: GI
The entries below are paired with their reported inhibition at 72 h, 10 µM.
READOUT KIND: inhibition at 72 h, 10 µM (%)

{"MOL SMILES": "C[C@H]1[C@H](C)CC[C@]2(C(=O)OCCN3CCN(C(=O)c4ccc(F)cc4F)CC3)CC[C@]3(C)C(=CC[C@@H]4[C@@]5(C)CC[C@H](O)C(C)(C)[C@@H]5CC[C@]43C)[C@H]12", "READOUT KIND": "inhibition at 72 h, 10 µM", "UOM": "%", "VALUE MEASURED": 18.1}
{"MOL SMILES": "C[C@H]1[C@H](C)CC[C@]2(C(=O)OCCN3CCN(C(=O)c4cc([N+](=O)[O-])cc([N+](=O)[O-])c4)CC3)CC[C@]3(C)C(=CC[C@@H]4[C@@]5(C)CC[C@H](O)C(C)(C)[C@@H]5CC[C@]43C)[C@H]12", "READOUT KIND": "inhibition at 72 h, 10 µM", "UOM": "%", "VALUE MEASURED": 37.2}
{"MOL SMILES": "CC(C)c1ccc(C(=O)N2CCN(CCOC(=O)[C@]34CC[C@@H](C)[C@H](C)[C@H]3C3=CC[C@@H]5[C@@]6(C)CC[C@H](O)C(C)(C)[C@@H]6CC[C@@]5(C)[C@]3(C)CC4)CC2)cc1", "READOUT KIND": "inhibition at 72 h, 10 µM", "UOM": "%", "VALUE MEASURED": 5.5}
{"MOL SMILES": "C[C@H]1[C@H](C)CC[C@]2(C(=O)OCCN3CCN(C(=O)c4cccnc4Cl)CC3)CC[C@]3(C)C(=CC[C@@H]4[C@@]5(C)CC[C@H](O)C(C)(C)[C@@H]5CC[C@]43C)[C@H]12", "READOUT KIND": "inhibition at 72 h, 10 µM", "UOM": "%", "VALUE MEASURED": 4.3}
